Biological target: Indoleamine 2,3-Dioxygenase (IDO1) in SKOV-3 cells (Homo sapiens, UniProt P14902)
Construct: endogenous in cells
Sequence (P14902 whole entry): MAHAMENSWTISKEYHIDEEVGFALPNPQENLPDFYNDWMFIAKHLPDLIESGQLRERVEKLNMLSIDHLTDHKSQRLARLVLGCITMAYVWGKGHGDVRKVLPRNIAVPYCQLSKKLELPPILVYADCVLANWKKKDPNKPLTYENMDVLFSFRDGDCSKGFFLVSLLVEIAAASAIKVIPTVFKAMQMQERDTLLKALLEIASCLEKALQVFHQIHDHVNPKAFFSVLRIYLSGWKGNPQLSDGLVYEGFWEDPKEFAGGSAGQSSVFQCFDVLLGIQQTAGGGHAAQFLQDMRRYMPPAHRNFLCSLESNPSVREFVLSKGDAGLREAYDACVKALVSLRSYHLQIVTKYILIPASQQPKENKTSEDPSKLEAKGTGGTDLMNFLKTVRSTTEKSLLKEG
Experiment: SKOV-3 cellular indoleamine 2,3-dioxygenase assay
Conditions: 50 ng/ml Interferon gamma, 100 μM L-Tryptophan, 24 hours, N-Formylkynurenin fluorescence, read-out: cell based activity (IC50)
Method: SKOV-3 Cellular Indoleamine 2,3-Dioxygenase Assay SKOV-3 cells were obtained from the American Type Culture Collection (ATCC® HTB-77™) and maintained in McCoy's medium (Pan Biotech) supplemented with 10% fetal bovine serum and 1% Penicilin/Streptomycin. Cells were kept at 37° C. in a humidified incubator with 5% CO2. […]
recorded metric: IC50

>  <compound>
O=C(Nc1ccc(Cl)cn1)C(=O)N1CCC(c2cccc3ccccc23)CC1 [Example 6]

>  <IC50>
100 to 1000 nM

$$$$
>  <compound>
O=C(NCc1ccc(Cl)o1)C(=O)N1CCC(c2ccnc3ccc(F)cc23)CC1 [2/2]

>  <IC50>
> 1000 nM

$$$$
>  <compound>
O=C(Nc1ccc(CCCl)cc1)C(=O)N1CCC(c2ccnc3ccc(F)cc23)CC1 [Example 7]

>  <IC50>
< 100 nM

$$$$

Form entry - test system: Indoleamine 2,3-Dioxygenase (IDO1) in SKOV-3 cells (Homo sapiens, UniProt P14902); read-out: IC50; compound: O=C(NC1CCC(C(F)(F)F)CC1)C(=O)N1CCC(c2ccnc3ccc(F)cc23)CC1 (stereo not shown) [8/6] > 1000 nM

Can you handle O=C(Nc1ccc(Cl)cn1)C(=O)N1CCC(c2cc(OC(F)F)nc3ccccc23)CC1 [1/33] next? > 1000 nM

Can you handle O=C(NCC1CC1)C(=O)N1CCC(c2ccnc3ccc(F)cc23)CC1 [8/4] next? > 1000 nM

Can you handle O=C(Nc1ccc(Cl)cc1F)C(=O)N1CCC(c2cc(C(F)(F)F)nc3ccccc23)CC1 [1/4] next? 100 to 1000 nM

* * *

Target: Indoleamine 2,3-Dioxygenase (IDO1) in SKOV-3 cells (Homo sapiens, UniProt P14902)
Construct: endogenous in cells
Assay: SKOV-3 cellular indoleamine 2,3-dioxygenase assay
Conditions: 50 ng/ml Interferon gamma, 100 μM L-Tryptophan, 24 hours, N-Formylkynurenin fluorescence, read-out: cell based activity (IC50)
Procedure: SKOV-3 Cellular Indoleamine 2,3-Dioxygenase Assay SKOV-3 cells were obtained from the American Type Culture Collection (ATCC® HTB-77™) and maintained in McCoy's medium (Pan Biotech) supplemented with 10% fetal bovine serum and 1% Penicilin/Streptomycin. Cells were kept at 37° C. in a humidified incubator with 5% CO2. […]
pIC50: −log10 of the molar value.
recorded metric: pIC50

Answered examples (2):
>  <smiles input>
NC(=O)c1ccc(NC(=O)C(=O)N2CCC(c3ccnc4ccc(F)cc34)CC2)cc1

>  <pIC50>
< 6.00

$$$$
>  <smiles input>
O=C(Nc1ccc(F)cc1)C(=O)N1CCC(c2ccnc3ccc(F)cc23)CC1

>  <pIC50>
> 7.00

$$$$

Let's switch to this compound now.
Given `O=C(Nc1ccc(Cl)cn1)C(=O)N1CCC2(CC1)OCc1cc(Cl)ccc12` , state its recorded pIC50. 6.00 to 7.00
